Quick list: cytotoxicity at 70.5 h per entry.
measurement-notes: Human HepG2 cell viability assay in 384 well format
Type: toxicity, cell-based
Parameters: dose 125 nL, time 70.5 hour; concentration not given beside the values
measurement-setup: HepG2 cells, read-out: Inhibition
experimental-readout: cytotoxicity at 70.5 h (%)

1) CS(=O)(=O)NCc1nnc2n1CCN(Cc1ccccn1)C2: -9
2) CC(Cn1cccn1)C(=O)N1CCC(NS(C)(=O)=O)CC1 (stereo unspecified): -6.23
3) CC(C)c1cc(N[C@H](C(N)=O)C(C)C)n2nccc2n1: -4.75
4) O=C(NC1CCCN(c2ccc(OC(F)F)cc2)C1)c1ccon1 (stereo unspecified): -1.24
5) O=C(O)c1cc(S(=O)(=O)N2CCOc3ccccc32)ccc1Br: -2.35
6) O=C(CCc1cccs1)N1CCC(Nc2cccnn2)CC1: 42.7

###

measurement-notes: Human HepG2 cell viability assay in 384 well format
Format: toxicity, cell-based
Set-up: dose 125 nL, time 70.5 hour; concentration not given beside the values
measurement-setup: HepG2 cells, read-out: Inhibition
experimental-readout: cytotoxicity at 70.5 h (%)

1) Cc1nc(CCCNC(=O)C2CC(=O)N(C3CCCC3)C2)sc1C (stereo unspecified): -9.24
2) CCOC(=O)N1CCN(C(=O)c2cc(-c3ccc(Cl)cc3Cl)on2)CC1: 0.435
3) Cc1noc(C)c1C(=O)N1C[C@H]2CC[C@@H]1CN(c1cnccn1)C2: -5.44
4) COCCCNC(=O)Nc1ccc(-n2cncn2)c(C(F)(F)F)c1: -5.91
5) COc1ccc(CCNC(=O)N2CCCC(c3nncn3C)C2)cc1 (stereo unspecified): -4.56
6) O=C(NCc1ccc(Br)cc1)NCC1CCOC1 (stereo unspecified): -10.4

###

Reported cytotoxicity at 70.5 h values follow for various compounds
measurement-notes: Human HepG2 cell viability assay in 384 well format
Type: toxicity, cell-based
Set-up: dose 125 nL, time 70.5 hour; concentration not given beside the values
measurement-setup: HepG2 cells, read-out: Inhibition
experimental-readout: cytotoxicity at 70.5 h (%)

1) CCN(Cc1noc(CC(C)C)n1)Cc1cccc(F)c1O: 12.8
2) Cc1cn2nc(Sc3nnnn3C)sc2n1: -4.31
3) CCOC1CCN(C(=O)c2cc(-c3ccc(Cl)cc3)on2)CC1: -5.56
4) COCCn1cnc2ccc(NC(=O)C(C)C)cc2c1=O: -7.01
5) Cc1cc(C(=O)O)ccc1NS(=O)(=O)c1c(C)nn(C(C)C)c1C: -5.01
6) COc1ccccc1CNC(Cc1cccs1)c1nc(C)c(C)s1 (configuration not stated): 8.5
7) O=c1c2c(ncn1CCO)nc1n2CCC1: -5.61
8) CC(NCc1cccc(S(=O)(=O)N(C)C)c1)c1cccnc1 (configuration not stated): -3.39
9) COc1ccccc1OC1CCN(Cc2ccc(N(C)C)nc2)CC1: -6.85
10) CN(C)C[C@@H]1CCC[C@@H]2CN(c3cccnc3)C[C@@H]21: -1.5
11) c1cnn(CC2CCCCN2c2ncnc3sccc23)c1 (configuration not stated): -6.33
12) OC(CN1CCN(Cc2cccnc2)CC1)c1cccs1 (configuration not stated): -3.13

###

Overview of reported cytotoxicity at 70.5 h across a group of molecules:
measurement-notes: Human HepG2 cell viability assay in 384 well format
Format: toxicity, cell-based
Design: dose 125 nL, time 70.5 hour; concentration not given beside the values
measurement-setup: HepG2 cells, read-out: Inhibition
experimental-readout: cytotoxicity at 70.5 h (%)

1) Cc1ccc2oc(SCC(N)=O)nc2n1: -21.9
2) COC(=O)CC(c1ccc(OC)c(O)c1)c1oc(C)cc(=O)c1O (stereo unspecified): -2.8
3) CC(O)(CNS(=O)(=O)Cc1ccon1)c1ccsc1 (stereo unspecified): 0.988
4) CCC(NC(=O)CNC(=O)OC)c1cc(F)ccc1F (stereo unspecified): -2.42
5) CC(C)NC1CCc2c(ccc(=O)n2CCN(C)C)C1 (stereo unspecified): 7.71
6) O=C(C1CCC1)N1CCCn2nc(CNc3ncccn3)cc2C1: 1.42
7) O=C(c1cccc(F)c1)N1C[C@@H](CN2CCCCC2)[C@@H](CO)C1: -7.48
8) COc1cccc(CCC2CCCN(C(=O)c3ccccn3)C2)c1 (stereo unspecified): 17.8
9) CCc1ccc(NC(=O)N2C[C@H]3C[C@H](C(=O)N4CCCC4)[C@@H](C2)O3)cc1: 21
10) O=c1cc(Cn2ccnc2)nc2n1CCCN(Cc1ccc(F)cc1)C2: -14.3
11) CC(C)Oc1cccc(F)c1C(C(=O)O)N(C)Cc1ccon1 (stereo unspecified): 0.036

###

measurement-notes: Human HepG2 cell viability assay in 384 well format
Assay type: toxicity, cell-based
Set-up: dose 125 nL, time 70.5 hour; concentration not given beside the values
measurement-setup: HepG2 cells, read-out: Inhibition
experimental-readout: cytotoxicity at 70.5 h (%)

1) O=C1O[C@@H]2CN(C3CCOCC3)C[C@@H]2N1CCCc1ccc(F)cc1: 14.2
2) CNC(=O)c1cc(NC(=O)NC(C)CCc2cccn2C)ccc1F (stereo unspecified): 22.7
3) CC(CS(C)(=O)=O)N(C(=O)CCc1cccc(F)c1)C1CC1 (stereo unspecified): 12.6
4) O=C(NCCNc1cnccn1)N1CCc2ccccc2C1: -13.1
5) CN(C(=O)Cc1ccc2c(c1)OCCO2)C1CCCCC1: -1.71
6) CC1c2cc(F)ccc2CCN1C(=O)c1[nH]c(=O)[nH]c(=O)c1N (stereo unspecified): -2.24
7) Cc1ccc(C(=O)N(Cc2ccc(F)cc2)C2CC2)c(=O)[nH]1: -3.98
8) CCn1nc(C)c2nc(C(C)C)nc(NCC(C)C)c21: -8.62
9) Cc1cc(NCCSc2nccn2C)n2ncnc2n1: 17.1
10) O=C(Cn1cc(C(=O)O)ccc1=O)NCc1ccc(F)cc1Cl: 5.89
11) CC(C)N1CC[C@@](C)(O)[C@H](n2ccc(=O)[nH]c2=O)C1: -7.14

###

measurement-notes: Human HepG2 cell viability assay in 384 well format
Format: toxicity, cell-based
Parameters: dose 125 nL, time 70.5 hour; concentration not given beside the values
measurement-setup: HepG2 cells, read-out: Inhibition
experimental-readout: cytotoxicity at 70.5 h (%)

1. COc1ccc2c(c1)[C@@H](CCNC(C)=O)CC(C)(C)O2: -1.01
2. COc1ccc(NS(=O)(=O)c2cnc(NC(C)=O)s2)cc1: -8.08
3. Cc1csc(N2CCN(C(=O)Cc3ccc(C)s3)CC2)n1: 3.83
4. Cc1noc(C2CCN(C(=O)c3ccc(N(C)C)nc3)CC2)n1: -29.1
5. O=C(c1ccncc1)N1C[C@@H]2CC[C@H](C1)N(C(=O)C1CCCC1)C2: 2.1
6. CCNC(=O)CN1CCCC(c2ccc(C(=O)O)cc2)C1 (centres undefined): 31.1
7. COc1cc2nc3n(c(=O)c2cc1OC)CCN(C(=O)C1CCC1)CC3: -4.59
8. CCn1nc(-c2ccccc2F)ccc1=O: -8.76
9. CCCC(NC(=O)c1cc(C)ccc1C)c1nnn[nH]1 (centres undefined): 13.6
10. COCCN1CCCC1c1ccnc(-c2ccccc2)n1 (centres undefined): -4.49
11. CCOc1nn(CC)cc1-c1nnc(SCc2cccnc2)n1C: -5.3
12. Cc1noc(C2CCCN(C(=O)c3ccc(Cl)cc3F)C2)n1 (centres undefined): -7.02
13. CCC(C)NC(=O)c1cc(S(=O)(=O)N2CCCC2)c(C)s1 (centres undefined): -3.53
14. CCn1c(C)nnc1Sc1nn2cc(C)nc2s1: -5.8
15. COc1ccc(-c2nccn2C[C@@H]2CCCN3CCCC[C@H]23)cc1: 1.3
16. Cn1ncc2c(NCC(=O)N3CCNCC3)nc(C(C)(C)C)nc21: -1.24
17. Cc1csc(C2(NCc3csc(C4CC4)n3)CCCC2)n1: -9.17
18. CC(C)c1ncncc1C(=O)N1CCN(Cc2cccnc2)CC1: -6.82
19. O=C1CC(C(=O)Nc2nnc(-c3ccccn3)[nH]2)c2ccccc2N1 (centres undefined): 6.91
20. O=C(O)c1ccc(CC2CCN(Cc3ccc(-c4cc[nH]n4)o3)C2)cc1 (centres undefined): -5.13
21. Cc1cccc(C2CCCN(S(=O)(=O)c3cccnc3)C2)n1 (centres undefined): -2.36
22. CCn1nc(C)cc1C(=O)N1C[C@H]2CCC[C@@]2(COc2ccccn2)C1: -7.77
23. CC(NC(=O)c1ccoc1)C(=O)N(C)Cc1ccsc1 (centres undefined): -5.45
24. CCNC(=O)N(Cc1cccc(OC)c1)C1CCC(O)CC1 (centres undefined): 2.57

###

Documented cytotoxicity at 70.5 h across a set of molecules
measurement-notes: Human HepG2 cell viability assay in 384 well format
Assay type: toxicity, cell-based
Set-up: dose 125 nL, time 70.5 hour; concentration not given beside the values
measurement-setup: HepG2 cells, read-out: Inhibition
experimental-readout: cytotoxicity at 70.5 h (%)

1. O=C(CCNc1ncccn1)NCc1csc(Br)c1: 11.5
2. Cc1cnn(C2CCCN(C(=O)Cn3ccc(=O)n(C)c3=O)C2)c1 (stereo unspecified): -1.04
3. Cn1c(=O)n(C)c2nc(Cl)c(CC(=O)c3ccc(F)cc3)n2c1=O: 0.873
4. O=S(=O)(N1CCN(CC2CC2)CC1)N1CCCC1c1ccco1 (stereo unspecified): -5.9
5. O=S(=O)(c1cccnc1)N1C[C@@H]2CC[C@H](C1)N(Cc1ccccn1)C2: -5.11
6. Cc1ncsc1CN(C)Cc1cc2c(cc1OC(F)F)OCO2: 5.16
